These entries and their values trace back to patent US20090170763A1.

biological target: rat GHS-R (GHS receptor) expressed on CHO-GHSR62 cells (rat, UniProt O08725 1-364); test: cell-based or functional assay
Sequence (O08725 whole entry): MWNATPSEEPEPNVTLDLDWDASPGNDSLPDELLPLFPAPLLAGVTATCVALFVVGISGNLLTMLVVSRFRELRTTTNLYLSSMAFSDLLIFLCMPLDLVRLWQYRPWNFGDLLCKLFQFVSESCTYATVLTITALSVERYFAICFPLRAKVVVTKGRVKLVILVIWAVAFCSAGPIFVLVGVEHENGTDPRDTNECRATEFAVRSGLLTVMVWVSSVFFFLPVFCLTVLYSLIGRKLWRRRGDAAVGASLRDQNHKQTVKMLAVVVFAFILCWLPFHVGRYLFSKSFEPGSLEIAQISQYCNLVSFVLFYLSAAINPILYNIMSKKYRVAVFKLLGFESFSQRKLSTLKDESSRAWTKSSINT
Ends that are not written are not given here. * marks the point of attachment. Octanoyl = CCCCCCCC(=O)*
Quantity measured: Ca-releasing activity EC50 (nM)
Numbers only; they are read as nM.

Measured Ca-releasing activity EC50, GSS(Octanoyl)FLSPE [Ghrelin (1-8)] : 100

Measured Ca-releasing activity EC50, GSS(Octanoyl)FLSPEHQR [hGhrelin (1-11)] : 15

Measured Ca-releasing activity EC50, GSS(Octanoyl)FLS-NH2 (N-terminus assumed; SMILES CCCCCCCC(=O)OC[C@H](NC(=O)[C@H](CO)NC(=O)CN)C(=O)N[C@@H](Cc1ccccc1)C(=O)N[C@@H](CC(C)C)C(=O)N[C@@H](CO)C(N)=O) [Ghrelin (1-6)-amide] : 4.8

Measured Ca-releasing activity EC50, GSS(Octanoyl)FLSPEHQK [rGhrelin (1-11)] : 15

Measured Ca-releasing activity EC50, GSS(Octanoyl)FL-NH2 (N-terminus assumed; SMILES CCCCCCCC(=O)OC[C@H](NC(=O)[C@H](CO)NC(=O)CN)C(=O)N[C@@H](Cc1ccccc1)C(=O)N[C@@H](CC(C)C)C(N)=O) [Ghrelin (1-5)-amide] : 6.2

Measured Ca-releasing activity EC50, GSS(Octanoyl)FLSP-NH2 (N-terminus assumed; SMILES CCCCCCCC(=O)OC[C@H](NC(=O)[C@H](CO)NC(=O)CN)C(=O)N[C@@H](Cc1ccccc1)C(=O)N[C@@H](CC(C)C)C(=O)N[C@@H](CO)C(=O)N1CCC[C@H]1C(N)=O) [Ghrelin (1-7)-amide] : 2.6

Measured Ca-releasing activity EC50, GSS(Octanoyl)F [Ghrelin (1-4)] : 480

Measured Ca-releasing activity EC50, GSS(Octanoyl)FLSPE-NH2 (N-terminus assumed; SMILES CCCCCCCC(=O)OC[C@H](NC(=O)[C@H](CO)NC(=O)CN)C(=O)N[C@@H](Cc1ccccc1)C(=O)N[C@@H](CC(C)C)C(=O)N[C@@H](CO)C(=O)N1CCC[C@H]1C(=O)N[C@@H](CCC(=O)O)C(N)=O) [Ghrelin (1-8)-amide] : 13

Measured Ca-releasing activity EC50, GSS(Octanoyl)FLSPEH [Ghrelin (1-9)] : 38
